Source: patent US6528487B1

Could you please report measured inhibition at 500 µM for the items listed next?
measurementTarget: GMP-140 (Homo sapiens)
Construct: from tissue; host or cells: human platelets (outdated platelet packs from a blood bank)
Sequence (P16109 42-830): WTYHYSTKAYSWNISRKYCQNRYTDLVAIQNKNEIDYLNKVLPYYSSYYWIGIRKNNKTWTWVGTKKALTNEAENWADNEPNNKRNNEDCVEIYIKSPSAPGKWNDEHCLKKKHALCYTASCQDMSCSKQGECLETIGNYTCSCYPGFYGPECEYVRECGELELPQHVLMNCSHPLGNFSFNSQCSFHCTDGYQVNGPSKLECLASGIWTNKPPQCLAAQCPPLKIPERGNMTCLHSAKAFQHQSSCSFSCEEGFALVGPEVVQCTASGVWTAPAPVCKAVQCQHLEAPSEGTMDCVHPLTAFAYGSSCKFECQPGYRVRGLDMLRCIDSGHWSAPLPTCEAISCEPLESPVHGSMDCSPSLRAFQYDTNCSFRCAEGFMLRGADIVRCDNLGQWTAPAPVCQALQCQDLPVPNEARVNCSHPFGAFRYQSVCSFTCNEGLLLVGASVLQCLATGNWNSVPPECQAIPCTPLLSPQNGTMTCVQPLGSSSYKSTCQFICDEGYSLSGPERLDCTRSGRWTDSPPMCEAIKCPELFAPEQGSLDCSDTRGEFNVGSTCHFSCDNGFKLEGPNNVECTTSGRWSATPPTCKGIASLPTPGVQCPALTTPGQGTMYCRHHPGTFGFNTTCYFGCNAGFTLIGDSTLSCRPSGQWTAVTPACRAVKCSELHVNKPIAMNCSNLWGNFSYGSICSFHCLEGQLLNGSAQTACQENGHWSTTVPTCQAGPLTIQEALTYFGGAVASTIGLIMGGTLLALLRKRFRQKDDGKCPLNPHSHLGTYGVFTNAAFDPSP
assaySummary: Inhibition of neutrophil binding to GMP-140 coated wells
Type: cell-based
cond: peptide concentration 0.5 mM; human neutrophils, immobilized GMP-140; read-out: Percent inhibition of neutrophil binding to GMP-140
No end group written: not given here.
State just the number; it will be interpreted in %.

Q) Can you look up the measured inhibition at 500 µM of RKVNNVWVWV [RKVNNVWVWV] for me?
A) 98

Q) Try this substance next: RKNNGTWTWV-NH2 [RKNNGTWTWV-NH2]
A) 99

Q) Try this substance next: RKNNKTWTWV-NH2 [RKNNKTWTWV-NH2]
A) 20

Q) Try this substance next: RKVNNVWVWV-NH2 [RKVNNVWVWV-NH2]
A) 102

---

Could you please report measured inhibition at 100 µM for the items listed next?
measurementTarget: GMP-140 (Homo sapiens)
Construct: from tissue; host or cells: human platelets (outdated platelet packs from a blood bank)
assaySummary: Inhibition of neutrophil binding to GMP-140 coated wells
Format: cell-based
cond: peptide concentration 0.1 mM; human neutrophils, immobilized GMP-140; read-out: Percent inhibition of neutrophil binding to GMP-140
No end group written: not given here.
State just the number; it will be interpreted in %.

Q) inhibition at 100 µM of RKNNGTWTWV-NH2 [RKNNGTWTWV-NH2] on GMP-140 (Homo sapiens)?
A) 46

Q) Try this substance next: RKVNNVWVWV-NH2 [RKVNNVWVWV-NH2]
A) 94

Q) Try this substance next: RKVNNVWVWV [RKVNNVWVWV]
A) 82

Q) Try this substance next: RKNNKTWTWV-NH2 [RKNNKTWTWV-NH2]
A) 13

Q) Try this substance next: RKNNKTWTWVGTKKALTNEC-NH2
A) 9
